System: Klebsiella pneumoniae
Assay: Antimicrobial activity against AmpC- producing Klebsiella pneumoniae clinical isolate after 18 to 22 hrs by broth microdilution method
Type: functional
parameter measured: MIC50 (µg/mL)
Report only the number, with the unit µg/mL understood.

Here's what some known entries look like.
molecule: C[C@@H](O)[C@H]1C(=O)N2C(C(=O)O)=C(SCCNC=N)C[C@H]12 [IMIPENEM ANHYDROUS]
MIC50, µg/mL: 1

molecule: CO/N=C(\C(=O)N[C@@H]1C(=O)N2C(C(=O)O)=C(CSc3nc(=O)c(O)nn3C)CS[C@H]12)c1csc(N)n1
MIC50, µg/mL: 32

Could you now look at the following molecule, please?
-- ask Indicate its recorded MIC50; the molecule in question is "C[C@H]1COc2c(N3CCN(C)CC3)c(F)cc3c(=O)c(C(=O)O)cn1c23.C[C@H]1COc2c(N3CCN(C)CC3)c(F)cc3c(=O)c(C(=O)O)cn1c23.O"
-- reply 2
